- System: HepG2 cells
- PROTOCOL NOTES: Cell proliferation assay (MTS)
- Format: cell-based, human
- DETAILS: serial 2-fold dilutions (Table S6)
OUTCOME MEASURE: Minimal Lethal Dose, HepG2

1. CCCCCCCC(=O)N[C@H]1[C@H](O[C@H]2O[C@H](CO)[C@@H](O)[C@H](O)[C@H]2NC(=O)CCCCCCC)O[C@H](C[C@@H](O)[C@H]2O[C@@H](n3ccc(=O)[nH]c3=O)[C@H](O)[C@@H]2O)[C@H](O)[C@@H]1O; > 400 µg/mL

====

- PROTOCOL NOTES: in vivo
- Set-up: species or system C57BL/6 mice
- DETAILS: female, C57BL/6, mouse, ip, 30 mg/kg, Concentration, first series
OUTCOME MEASURE: concentration at 24 h (nM)

1) CCCCCCCC(=O)N[C@H]1[C@H](O[C@H]2O[C@H](CO)[C@@H](O)[C@H](O)[C@H]2NC(=O)CCCCCCC)O[C@H](C[C@@H](O)[C@H]2O[C@@H](n3ccc(=O)[nH]c3=O)[C@H](O)[C@@H]2O)[C@H](O)[C@@H]1O; 60

====

We begin with a simple list: items and their reported IC50.
- Test system: S. aureus ATCC29219
- PROTOCOL NOTES: Micro-broth dilution and drop plate antimicrobial susceptibility test
- Type: cell-based
- DETAILS: Staphylococcus aureus
OUTCOME MEASURE: IC50 (µg/mL)

1. CCCCCCC(=O)N[C@H]1[C@H](O[C@H]2O[C@H](CO)[C@@H](O)[C@H](O)[C@H]2NC(=O)CCCCCC)O[C@H](C[C@@H](O)[C@H]2O[C@@H](n3ccc(=O)[nH]c3=O)[C@H](O)[C@@H]2O)[C@H](O)[C@@H]1O; 80.5
2. CCCCCCCCCCC(=O)N[C@H]1[C@H](O[C@H]2O[C@H](CO)[C@@H](O)[C@H](O)[C@H]2NC(=O)CCCCCCCCCC)O[C@H](C[C@@H](O)[C@H]2O[C@@H](n3ccc(=O)[nH]c3=O)[C@H](O)[C@@H]2O)[C@H](O)[C@@H]1O; 58
3. CCCCCCCCC(=O)N[C@H]1[C@H](O[C@H]2O[C@H](CO)[C@@H](O)[C@H](O)[C@H]2NC(=O)CCCCCCCC)O[C@H](C[C@@H](O)[C@H]2O[C@@H](n3ccc(=O)[nH]c3=O)[C@H](O)[C@@H]2O)[C@H](O)[C@@H]1O; 48.9
4. CC(C)=CCC[C@H](C)CC(=O)N[C@H]1[C@H](O[C@H]2O[C@H](CO)[C@@H](O)[C@H](O)[C@H]2NC(=O)C[C@@H](C)CCC=C(C)C)O[C@H](C[C@@H](O)[C@H]2O[C@@H](n3ccc(=O)[nH]c3=O)[C@H](O)[C@@H]2O)[C@H](O)[C@@H]1O; 177
